From: PubChem BioAssay (NCI)

Item-by-item account of TGI
# System: SK-MEL-5 melanoma
# Method Notes: NCI tumour cell line growth inhibition, 48 h

Molecule: CCCc1nn(C)c2c(=O)[nH]c(-c3cc(S(=O)(=O)N4CCN(C)CC4)ccc3OCC)nc12
Target: SK-MEL-5 melanoma
TGI: > 100 µM
//
Molecule: CCOC(=O)c1c(O)cn2c1[nH]c1cccc3cccc2c31
Target: SK-MEL-5 melanoma
TGI: > 100 µM
//
Molecule: CC1SC(c2ccccc2Cl)N(NC(=O)C(O)c2ccccc2)C1=O (stereo not given)
Target: SK-MEL-5 melanoma
TGI: > 100 µM
//
Molecule: Nn1c(CCCCCCCCc2nnc(-c3c(O)ccc4ccccc34)n2N)nnc1-c1c(O)ccc2ccccc12
Target: SK-MEL-5 melanoma
TGI: > 100 µM
//
Molecule: C(=N\c1nc2cc3sc(/N=C/c4ccccc4)nc3cc2s1)/c1ccccc1
Target: SK-MEL-5 melanoma
TGI: > 100 µM
//
Molecule: COC(=O)Nc1nc2ccc(NS(=O)(=O)c3cccs3)cc2[nH]1
Target: SK-MEL-5 melanoma
TGI: > 100 µM
//
Molecule: CC(NC1=NCCO1)c1ccccc1Cl (stereo not given)
Target: SK-MEL-5 melanoma
TGI: > 100 µM
//
Molecule: Oc1ccccc1-c1nn(CNc2ccc(Cl)cc2)c(=S)o1
Target: SK-MEL-5 melanoma
TGI: > 100 µM
//
Molecule: Cc1ccc(S(=O)(=O)n2cc(C=O)c(-c3cn(S(=O)(=O)c4ccc(C)cc4)cc3-c3cn(S(=O)(=O)c4ccc(C)cc4)cc3C=O)c2)cc1
Target: SK-MEL-5 melanoma
TGI: > 100 µM
//
Molecule: OC1NC2Nc3ccccc3NC2NC1O (stereo not given)
Target: SK-MEL-5 melanoma
TGI: > 100 µM
